# System: ATP;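 also: ATP exposure 15 min at 22 °C before imaging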
# test-name: switch fluorescence ratio, 500 uM ATP over buffer (Cy3 cluster intensity, sum of 5 cycles each) (fold (ratio)); higher = stronger signal-on switching upon ATP binding; sequences stand for … in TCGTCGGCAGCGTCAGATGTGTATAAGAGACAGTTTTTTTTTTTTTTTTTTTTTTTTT…TC
# assay-context: aptamer strand: ATP DNA aptamer (quencher-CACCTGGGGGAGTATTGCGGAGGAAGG + anchor), 100 nM annealed; ATP concentration: 500 uM
Threshold rule: switch fluorescence ratio greater than or equal to 1 is 1 (yes); below that, 0 (no).

   sequence_record  test_target  label_class
0       ATAGCGGACA          ATP       0 (no)
1       ATATTAGACG          ATP      1 (yes)
2       GTTTAAACTC          ATP       0 (no)
3       TGTACCTTTA          ATP      1 (yes)
4       ATCGTAGGTG          ATP      1 (yes)
5       GAGTTGTGCC          ATP      1 (yes)
6       GCCCAAGGGG          ATP      1 (yes)
